The reported numbers originate from patent US12331044B2.

- TARGET OR SYSTEM: human HDAC8 (Homo sapiens (Human), UniProt Q9BY41)
- Sequence (Q9BY41 whole entry): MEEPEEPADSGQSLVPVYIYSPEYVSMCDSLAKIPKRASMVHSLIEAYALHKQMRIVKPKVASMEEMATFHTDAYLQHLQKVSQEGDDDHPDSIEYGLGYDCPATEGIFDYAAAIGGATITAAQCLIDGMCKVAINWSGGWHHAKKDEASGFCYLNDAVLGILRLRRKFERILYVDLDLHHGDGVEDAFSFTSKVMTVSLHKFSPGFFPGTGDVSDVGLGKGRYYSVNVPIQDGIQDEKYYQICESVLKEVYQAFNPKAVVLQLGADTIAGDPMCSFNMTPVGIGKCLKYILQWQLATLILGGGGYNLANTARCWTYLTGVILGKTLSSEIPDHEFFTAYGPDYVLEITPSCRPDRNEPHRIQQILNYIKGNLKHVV
- TEST NAME: HDAC8 inhibition assay (modified FLUOR DE LYS, 384-well)
- Assay type: biochemical
- PARTICULARS: […] enzyme, 200 μM substrate BML-KI178, 3 h pre-incubation; read-out: HDAC8 IC50
ASSAY ENDPOINT: IC50

INSERT INTO assay_data (molecule, assay_endpoint, assay_result) VALUES
  ('COc1cc2nc(C)ccc2cc1-c1cnc([C@H](CCCCCC(=O)c2ncco2)NC(=O)C2COc3ccccc3O2)[nH]1 (stereo partly shown) [Example 171]', 'IC50', '0.34 µM'),
  ('N[C@@H](CCCCCC(=O)c1ncco1)c1ncc(-c2cccc(F)c2F)[nH]1 [Example 136]', 'IC50', '> 0.9 µM'),
  ('COc1cc2nc(C)ccc2cc1-c1cnc([C@H](CCCCCC(=O)c2ncco2)NC(=O)C2COCCO2)[nH]1 (stereo partly shown) [Example 173]', 'IC50', '0.083 µM'),
  ('COc1cc2nc(C)ccc2cc1-c1cnc([C@H](CCCCCC(=O)c2ncco2)NC(=O)c2cc3ccccn3n2)[nH]1 [Example 167]', 'IC50', '0.063 µM'),
  ('COc1cc2nc(C)ccc2cc1-c1cnc([C@H](CCCCCC(=O)c2ncco2)NC(=O)CN2CCOCC2=O)[nH]1 [Example 158]', 'IC50', '0.048 µM'),
  ('N[C@@H](CCCCCC(=O)c1ncco1)c1ncc(-c2cc(F)ccc2F)[nH]1 [Example 135]', 'IC50', '> 0.9 µM'),
  ('CCn1ccc2cc(-c3cnc([C@H](CCCCCC(=O)c4ncco4)NC(=O)CN(C)C)[nH]3)c(OC)cc2c1=O [Example 96]', 'IC50', '0.057 µM'),
  ('COc1cc(-c2cnc([C@H](CCCCCC(=O)c3ncco3)NC(=O)C3CN(C)C3)[nH]2)c(F)cn1 [Example 178]', 'IC50', '0.083 µM'),
  ('COc1nc2ccccc2cc1-c1cnc([C@H](CCCCCC(=O)c2ncco2)NC(=O)CN(C)C)[nH]1 [Example 41]', 'IC50', '0.065 µM'),
  ('CC(C)n1ccc2cc(-c3cnc([C@@H](N)CCCCCC(=O)c4ncco4)[nH]3)ccc2c1=O [Example 17]', 'IC50', '2.9 µM');
